# maps each entry to its AC50
Tested system: human TSHR (Homo sapiens)
Construct: expressed in transfected cells
Sequence (P16473 21-764): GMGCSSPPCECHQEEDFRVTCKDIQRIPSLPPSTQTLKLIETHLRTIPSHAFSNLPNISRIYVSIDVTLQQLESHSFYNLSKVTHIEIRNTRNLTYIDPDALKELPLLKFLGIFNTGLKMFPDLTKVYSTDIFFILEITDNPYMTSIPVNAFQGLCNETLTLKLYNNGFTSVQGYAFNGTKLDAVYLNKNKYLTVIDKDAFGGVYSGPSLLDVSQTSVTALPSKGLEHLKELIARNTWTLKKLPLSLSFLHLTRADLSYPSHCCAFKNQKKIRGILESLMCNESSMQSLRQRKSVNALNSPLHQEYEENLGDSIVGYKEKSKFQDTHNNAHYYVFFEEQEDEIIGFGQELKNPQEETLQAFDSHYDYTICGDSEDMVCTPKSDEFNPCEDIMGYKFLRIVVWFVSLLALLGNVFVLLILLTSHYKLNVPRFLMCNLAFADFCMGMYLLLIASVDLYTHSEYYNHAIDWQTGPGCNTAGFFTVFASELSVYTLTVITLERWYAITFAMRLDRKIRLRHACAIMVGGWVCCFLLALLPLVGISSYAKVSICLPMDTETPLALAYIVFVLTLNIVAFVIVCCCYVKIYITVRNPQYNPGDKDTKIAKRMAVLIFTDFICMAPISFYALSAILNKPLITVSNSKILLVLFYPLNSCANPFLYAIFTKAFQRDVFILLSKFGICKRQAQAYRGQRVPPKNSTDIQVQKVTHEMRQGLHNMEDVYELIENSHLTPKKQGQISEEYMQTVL
Assay info: Homogeneous Time Resolved Fluorescence (HTRF) cAMP assay, TSHR cell line
Format: cell-based
Condition summary: HTRF cAMP, TSHR cell line, 30 minute incubation; read-out: AC50
The response must be a number in µM with no trailing unit.

Worked examples, 4 compounds total:
COc1ccc(C2Nc3ccccc3C(=O)N2Cc2ccncc2)cc1COc1ccc(NC(C)=O)cc1 (stereo not shown) [Structure 132]
31.6
COc1ccc(-c2nc3ccc(NC(C)=O)cc3c(=O)n2Cc2cccc(Cl)c2)cc1COc1ccc(NC(C)=O)cc1 [Structure 110]
22.4
COc1ccc(C2Nc3ccccc3C(=O)N2Cc2ccncc2)cc1COc1ccc(NC(C)=O)cc1 (stereo not shown) [Structure 125]
39.8
COc1ccc(C(=O)N(Cc2ccccc2)Cc2ccccc2)cc1COc1ccc(NC(C)=O)cc1 [Structure 167]
14.1

Data point: O=C(c1ccccc1O)N(Cc1cccs1)Cc1cccs1 ; AC50 = 31.6

Data point: COc1ccc(C2Oc3ccccc3C(=O)N2Cc2ccccc2)cc1COc1ccc(NC(C)=O)cc1 (stereo not shown) [Structure 78] ; AC50 = 8.91

Data point: COc1ccc(C2Nc3cccc(O)c3C(=O)N2Cc2ccccc2)cc1COc1ccc(NC(C)=O)cc1 (stereo not shown) [Structure 28] ; AC50 = 10
